system: K-562 leukemia; experiment: NCI tumour cell line growth inhibition, 48 h
Entries and their TGI values follow.
Value Kind: TGI

# Molecule, Obs Value
measured = [
    ("O=C(CNC(=O)c1cccc2ccccc12)Nc1ccccc1Oc1ccccc1", "> 10 µM"),
    ("COc1cc2cnc3c(c2cc1OC)Cc1cc2c(cc1-3)OCO2", "> 100 µM"),
    ("O=C(Nc1ccncc1)C(=O)c1cn(S(=O)(=O)c2ccccc2F)c2ccccc12", "> 100 µM"),
    ("COc1ccc2c(-c3ccc(O)cc3)c(Oc3ccccc3)c(=O)oc2c1", "> 100 µM"),
    ("Cc1ccc(N2C(=O)CC(=O)N(NC(=O)C(C)Oc3ccccc3C)C2=S)cc1 (configuration not stated)", "> 100 µM"),
    ("Nc1ccccc1Sc1ccc(Cl)cc1", "94.4 µM"),
    ("O=C(c1ccc(Cl)cc1)N(C(=S)N1CCN(c2ccccc2)CC1)c1ccccc1", "> 100 µM"),
    ("CSc1nc(-c2cc3c(c(SC)n2)CCC3)cc2c1CCC2", "> 100 µM"),
    ("COc1cc2c(cc1OC)[C@@H](C(O)c1ccccc1)NCC2 (some centres not stated)", "> 100 µM"),
    ("O=C1CNc2cc(N3CCN(c4cccc(C(F)(F)F)c4)CC3)ccc2N1", "> 100 µM"),
    ("CN(C)CCCNC(=O)CNC(=O)c1cc(NC(=O)c2cc(NC(=O)c3cc(NC(=O)CCNC(=O)c4cc(NC(=O)c5cc(NC(=O)c6nccn6C)cn5C)cn4C)cn3C)cn2C)cn1C", "> 100 µM"),
    ("CCOC(=O)NNC1(SC)NC(=O)c2c(cc(Cl)oc2=O)O1 (configuration not stated)", "9.07 µM"),
    ("N#Cc1nsnc1-c1nc(-c2nsnc2C#N)nc(-c2nsnc2C#N)n1", "> 100 µM"),
    ("Cc1c(Cl)cccc1NC(=O)c1sc2nc3c(cc2c1N)CCCCCC3", "> 50 µM"),
    ("c1ccc(-c2cc(-c3cc(-c4ccccc4)n[nH]3)[nH]n2)cc1", "> 100 µM"),
    ("COc1cc(-c2cc(-c3nc4ccccc4[nH]3)[nH]n2)cc(OC)c1OC", "> 100 µM"),
    ("C=CC1(CBr)CCC(C(C)(C)Br)O1 (configuration not stated)", "> 25.9 µM"),
    ("Cc1ccc(NC(=S)NNC(=O)c2cc(-c3ccccc3)nc3ccccc23)cc1C", "79.5 µM"),
    ("CCOC(=O)/C=C/[C@H](O[Si](c1ccccc1)(c1ccccc1)c1ccccc1)C(C)(C)C", "> 31.6 µM"),
    ("COC1CC(OS(=O)(=O)c2ccc(C)cc2)C(OS(=O)(=O)c2ccc(C)cc2)C(COS(=O)(=O)c2ccc(C)cc2)O1 (configuration not stated)", "> 100 µM"),
    ("N#C[C@](CO)(NC(=O)OCc1ccccc1)C(F)F", "> 100 µM"),
    ("CCOC(=O)c1ccc(Nc2nc3ccc(C(F)(F)F)cc3nc2-c2ccccc2)cc1", "> 100 µM"),
    ("N#CC(C#N)=CN1CCN(C(=O)c2ccccc2)C1=S", "> 100 µM"),
    ("C#CC[C@H](c1nc2cc(Cl)ccc2c(=O)n1Nc1ccccc1)N(CCCN)C(=O)c1cccc(Cl)c1F", "1.85 µM"),
    ("CC1=NN(C(=O)CC(=O)Nc2cccc(Cl)c2)C(=O)C1N=Nc1ccc(S(=O)(=O)c2ccc(N=NC3C(=O)N(C(=O)CC(=O)Nc4cccc(Cl)c4)N=C3C)cc2)cc1 (configuration not stated)", "> 100 µM"),
    ("O=[N+]([O-])C(=C/C1CCCCC1)/C(=C\\C1CCCCC1)[N+](=O)[O-]", "> 82 µM"),
    ("CC1(C)OC[C@@]2([C@@H]3CC[C@@H](C3)C2(C)C)N1O", "> 100 µM"),
]
